Quantity Measured: melting point

Answered examples (4):
| Molecule | Test Value |
| --- | --- |
| CC(=O)NC1=NN(c2ccc(Cl)cc2)CC1C (stereo not given) | 172 to 173 °C |
| CN(C)CCCN=C1CC(c2ccc(Cl)cc2Cl)Cc2c1c(=O)c1cc(Cl)ccc1n2O (stereo not given) | 172 to 174 °C |
| CCCCCCCCC1C(=O)NC(=O)N1CCCCCCC(=O)O (stereo not given) | 65 to 66 °C |
| O=C(NO)[C@H]1[C@H](O)CCN1C(=O)c1ccc(OC(F)(F)F)cc1 | 64 to 65 °C |

Asked: Quote melting point reported for "CCC(=O)Oc1cc(-c2nc3cc(C(=O)O)ccc3oc2=O)cc([N+](=O)[O-])c1OC(=O)CC" please.
Given back: 192 to 194 °C

Asked: Quote melting point reported for "Cc1cc(-c2ccco2)ccc1-c1cc(C(F)(F)F)nn1-c1ccc(S(C)(=O)=O)c(F)c1" please.
Given back: 77 to 79 °C

Asked: Quote melting point reported for "CCCC(CCC)c1ccc(OCc2ccc(-c3csc(COc4cncc(C(=O)O)c4)c3)cc2)cc1" please.
Given back: 157 to 159 °C

Asked: Quote melting point reported for "O=C(CCl)c1ccc2cc(O)c(O)cc2c1" please.
Given back: > 320 °C

Asked: Quote melting point reported for "NC(=O)CC[C@H](NCc1ccccc1C(=O)O)C(=O)O" please.
Given back: 132 to 133 °C

Asked: Quote melting point reported for O=C(N[C@H](Cc1ccc(Cl)c(OC(F)(F)C(F)F)c1)[C@@H](O)c1ccc(F)cc1)c1ccc(F)c2ccccc12 (racemic) please.
Given back: 206 to 207 °C

###

In this section, each of the molecules is paired with its reported melting point.

| Molecule | Test Value |
| --- | --- |
| FC(F)(F)Oc1ccc(-c2ccc3[nH]c4c(ccc5cc[nH]c54)c3c2)cc1 | > 250 °C |
| N#CC1CN1C(=O)NC(=O)c1ccc(-c2ccccc2)cc1 (stereo unspecified) | 168 to 172 °C |

Asked: Quote melting point reported for "O=C1CCSc2c1ccc(Cl)c2Cl" please.
Given back: 93 to 102 °C

Asked: Quote melting point reported for "CCn1nc(N)nc1NCCCOc1cccc(CN(C)C)c1" please.
Given back: 104 to 105 °C

Asked: Quote melting point reported for COc1cc(F)ccc1-c1ccc(S(=O)(=O)N2c3ccccc3CC2C(=O)NCCOc2ccc(CC(=O)O)cc2)cc1 (stereo unspecified) please.
Given back: 102 to 110 °C

Asked: Quote melting point reported for CC(Oc1ccc(Cl)cc1)c1ccnc2ncnn12 (stereo unspecified) please.
Given back: 98 to 99 °C

Asked: Quote melting point reported for CN1CCC(C2(O)c3ccc(Cl)cc3Sc3ccc(F)cc32)CC1 (stereo unspecified) please.
Given back: 133 to 142 °C

Asked: Quote melting point reported for "COc1ccc2oc(-c3nc4c(s3)NCCCC4)cc2c1" please.
Given back: 121 to 125 °C

Asked: Quote melting point reported for "c1csc(-c2cnc(COc3ccc(CCCCn4ccnc4)cc3)o2)c1" please.
Given back: 136 to 138 °C

###

In this section, each of the molecules is paired with its reported melting point.

Answered examples (4):
| Molecule | melting point |
| --- | --- |
| Oc1ccc(-c2cc3c(O)cc(O)cc3o2)cc1 | 216 to 217 °C |
| CC(CO)N1c2ccccc2Sc2ccc(C#N)cc21 (racemic) | 123 °C |
| CC(C)C(=O)NCCCC1COCc2nc3c(N)nc4ccccc4c3n21 (stereo not given) | 207 to 208 °C |
| O=C(CC1CCCCC1)c1ccccc1 | 61 to 67 °C |

Asked: Quote melting point reported for CC(C(O)c1ccc(OC(=O)c2ccc(CNC(C)(C)C)cc2)cc1)N1CCC(O)(c2ccccc2)CC1 (stereo not given) please.
Given back: 195 to 197 °C
